Ref: patent US12516022B2

- assay_comment: Time course of conversion to indirubin in FaSSGF at 37° C.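 Note: compound incubated in fasted state simulated gastric fluid, species in samples quantified by UPLC-MS with UV (210–400 nm) and ELS detection.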
- Type: physicochemical
- condition_notes: FaSSGF (Example 4; table title prints FaSSIF) 37° C., 30 min
# indirubin methylene alcohol per record follows
Expressed in %, but write only the number.

Worked set:
compound	unit	indirubin methylene alcohol
O=C1/C(=C2/C(=O)N(CN3CCC3)c3ccccc32)Nc2ccccc21 [drawing 275]	%	4
CN(C)CCN(CCN(C)C)CN1C(=O)/C(=C2\Nc3ccccc3C2=O)c2ccccc21 [drawing 271]	%	4
CCN(CC)CN1C(=O)/C(=C2\Nc3ccccc3C2=O)c2ccccc21 [drawing 267]	%	0
O=C1/C(=C2/C(=O)N(COS(=O)(=O)O)c3ccccc32)Nc2ccccc21 [drawing 277]	%	23

Enquiry: Look at this compound and give its reported indirubin methylene alcohol. O=C1/C(=C2/C(=O)N(C(=O)NC3CCOCC3)c3ccccc32)Nc2ccccc21 [drawing 278]
Return: 0

Enquiry: Subsequent entry: O=C1/C(=C2/C(=O)N(CN3CCOCC3)c3ccccc32)Nc2ccccc21 [drawing 276]
Return: 0
